// % Reduction at day 17, Formula IA lookup, one value per entry
# protocolDetails: Accelerated stability of flavor components in peroxide mouthrinse, measured by gas chromatography
# Assay type: physicochemical
# conditionInfo: Formula IA with Glass H polyphosphate radical scavenger; 40° C., 75% RH; component at 0.005%

# molecule, readoutUnit, % Reduction at day 17, Formula IA
data = [
    ("CCCC(=O)OCC [Ethylbutyrate]", "%", 0),
    ("CCCCCCCCCC=O", "%", 20),
    ("CC=Cc1ccc(OC)cc1", "%", 60),
    ("C=C(C)[C@H]1CC=C(C)CC1", "%", 25),
    ("C=C(C)C1CC=C(C)C(=O)C1 (centres unmarked)", "%", 50),
]
